- Tested target: Adenosine receptor A1 (Rattus norvegicus) (UniProt P25099)
- Sequence (P25099 whole entry): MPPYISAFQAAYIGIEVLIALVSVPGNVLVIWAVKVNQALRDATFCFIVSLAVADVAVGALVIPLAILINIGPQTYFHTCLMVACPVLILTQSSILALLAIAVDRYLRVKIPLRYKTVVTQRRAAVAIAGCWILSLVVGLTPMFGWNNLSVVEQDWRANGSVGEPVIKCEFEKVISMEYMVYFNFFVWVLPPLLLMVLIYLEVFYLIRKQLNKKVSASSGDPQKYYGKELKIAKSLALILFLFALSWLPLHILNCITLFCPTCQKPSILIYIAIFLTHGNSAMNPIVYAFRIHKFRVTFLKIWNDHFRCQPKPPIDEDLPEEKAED
- Assay text: Relative affinities for rat Adenosine A1 receptor in the presence and absence of GTP

# Structure as smiles, GTP shift
rows = [
    ("CCCNc1nc2c(NC3CCCC3)ncnc2n1[C@@H]1O[C@H](CO)[C@@H](O)[C@H]1O", 3),
    ("CNc1nc2c(N)ncnc2n1[C@@H]1O[C@H](CO)[C@@H](O)[C@H]1O", 7.7),
    ("CNc1ncnc2c1nc(NC1CCCC1)n2[C@@H]1O[C@H](CO)[C@@H](O)[C@H]1O", 2.8),
    ("OC[C@H]1O[C@@H](n2c(NC3CCCC3)nc3c(NC4CCCC4)ncnc32)[C@H](O)[C@@H]1O", 1.2),
]

These measurements were taken from ChEMBL document CHEMBL1129060.
